B1: LINE1-full (parent)
chain: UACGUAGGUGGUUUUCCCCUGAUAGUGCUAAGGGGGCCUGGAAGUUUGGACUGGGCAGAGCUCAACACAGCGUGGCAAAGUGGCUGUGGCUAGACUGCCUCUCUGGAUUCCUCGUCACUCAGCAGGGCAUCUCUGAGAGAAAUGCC

- Variants of: B1
- assay.overview: self-cleavage, relative activity (ratio to wild type); higher = more cleavage; in vitro, sequencing; the parent is a self-cleaving ribozyme
Values of self-cleavage greater than or equal to 0.7 map to 1; values below map to 0.

Q. Would you say G27C U112G shows self-cleavage at minimum 0.7?
A. 1

Q. Has U104C U115C a recorded self-cleavage greater than or equal to 0.7?
A. 1

Q. Could you verify whether the entry C51U U85A shows self-cleavage of no less than 0.7?
A. 0

Q. Tell me whether self-cleavage is at least 0.7 here: U81A A136G
A. 1

Q. Decide: self-cleavage of U39C U104A >= 0.7?
A. 1

Q. Please check the record A43G U109C and state if its self-cleavage is at or above 0.7.
A. 1

Q. Please tell me: is the variant A22U U130C at or over 0.7 in terms of self-cleavage?
A. 1

Q. Please indicate if the recorded self-cleavage for A30U A31U meets or exceeds 0.7.
A. 1

Q. Is self-cleavage at least 0.7? Consider U47A A141G
A. 1

Q. hey, is self-cleavage for this one >= 0.7? G60A A77G
A. 0

Q. Determine whether this variant has self-cleavage no lower than 0.7: A64C A142G
A. 0

Q. Kindly determine if self-cleavage recorded for C37U A124U is above or exactly 0.7.
A. 1

Q. Quick check, self-cleavage >= 0.7? A94U G144A
A. 0

Q. Is reported self-cleavage greater than or equal to 0.7 here: U47A C61A
A. 0

Q. // inclusive: self-cleavage at least 0.7? input: U12A U73G
A. 1

Q. I'd appreciate it if you could say whether U85A C113U has self-cleavage at least equal to 0.7.
A. 0

Q. Please tell me: is the variant U13C G122A at or over 0.7 in terms of self-cleavage?
A. 1

Q. Could you verify whether the entry A77G U102C shows self-cleavage of no less than 0.7?
A. 1

Q. State whether the measured self-cleavage reaches 0.7, counting equality as reaching it, for U73A A138G
A. 1

Q. Say whether U46A A79G shows self-cleavage of 0.7 or more.
A. 1

Q. Please indicate if the recorded self-cleavage for G58A A121G meets or exceeds 0.7.
A. 0

Q. For this variant, is measured self-cleavage 0.7 or higher? U119A A121U
A. 1

Q. Check this variant for self-cleavage at or above 0.7: U13G A129G
A. 1

Q. Quick check, self-cleavage >= 0.7? A6U U9A
A. 1

Q. Please check the record U9C U115A and state if its self-cleavage is at or above 0.7.
A. 1

Q. Record A107G C145U ; criterion: self-cleavage no lower than 0.7. Met?
A. 1

Q. Check if self-cleavage >= 0.7 (inclusive). Item: A43C A138G
A. 1

Q. Reported self-cleavage reaches at least 0.7 for G7U A142G ?
A. 1

Q. Evaluate U45G U73A : self-cleavage at minimum 0.7?
A. 1

Q. Please check the record G86A A140U and state if its self-cleavage is at or above 0.7.
A. 0

Q. Record U14A A24G ; criterion: self-cleavage no lower than 0.7. Met?
A. 1

Q. Textbook exercise: given the entry G11A A78G , state whether its self-cleavage is greater than or equal to 0.7.
A. 1

Q. Given the entry U96C U115C , answer whether its self-cleavage meets or surpasses 0.7.
A. 0

Q. # bool: self-cleavage of A50C U112C >= 0.7
A. 1

Q. Record U62C U81C ; criterion: self-cleavage no lower than 0.7. Met?
A. 0

Q. API: above_or_equal(metric=self-cleavage, cutoff=0.7) for item U15C A50C
A. 1

Q. // inclusive: self-cleavage at least 0.7? input: A30G A92G
A. 0

Q. Please tell me: is the variant A50U A78G at or over 0.7 in terms of self-cleavage?
A. 1

Q. Kindly determine if self-cleavage recorded for A42G C51U is above or exactly 0.7.
A. 1

Q. Evaluate U52A A59U : self-cleavage at minimum 0.7?
A. 0

Q. State whether the measured self-cleavage reaches 0.7, counting equality as reaching it, for U45C A59U
A. 1

Q. Could you verify whether the entry U20C A121U shows self-cleavage of no less than 0.7?
A. 1

Q. Exam item: decide whether the reported self-cleavage for G8A A140G is at least 0.7.
A. 1

Q. Exam item: decide whether the reported self-cleavage for U39A A42U is at least 0.7.
A. 1

Q. Has A67G G114A a recorded self-cleavage greater than or equal to 0.7?
A. 0

Q. Hi team, for U12C G74A , is the recorded self-cleavage at or above 0.7?
A. 1

Q. Could you please find out whether A121C A136G has self-cleavage that meets 0.7 or exceeds it?
A. 1

Q. Please indicate if the recorded self-cleavage for U12C A136G meets or exceeds 0.7.
A. 1

Q. Has A77C A94G a recorded self-cleavage greater than or equal to 0.7?
A. 0

Q. Textbook exercise: given the entry U26G U119C , state whether its self-cleavage is greater than or equal to 0.7.
A. 1

Q. Record U13A U26A ; criterion: self-cleavage no lower than 0.7. Met?
A. 1

Q. Please tell me: is the variant A50G A92U at or over 0.7 in terms of self-cleavage?
A. 0

Q. In plain terms: is recorded self-cleavage at least 0.7 for C37A U91C ?
A. 0

Q. Quick check, self-cleavage >= 0.7? U12G U20C
A. 1

Q. Quick check: does U81C A129U have self-cleavage greater than or equal to 0.7?
A. 1

Q. Does C76U G82A have a reported self-cleavage of at least 0.7?
A. 1

Q. # bool: self-cleavage of U9A A140C >= 0.7
A. 1

Q. API: above_or_equal(metric=self-cleavage, cutoff=0.7) for item `U26A`
A. 1

Q. Does A57G C99U have a reported self-cleavage of at least 0.7?
A. 0

Q. Can C28U U143G be said to have self-cleavage at or above 0.7?
A. 1

Q. Confirm if self-cleavage reported for the variant A57U A94C is 0.7 or above.
A. 0

Q. Does the reported self-cleavage for C19U U52A fall at or above the 0.7 mark?
A. 1

Q. Would you say U1C A43G shows self-cleavage at minimum 0.7?
A. 1

Q. // inclusive: self-cleavage at least 0.7? input: U13C C71A
A. 0

Q. Item U47A U143A with self-cleavage of 0.7 or above?
A. 1

Q. Could you tell me if the measured self-cleavage of U104C U119G reaches 0.7 or more?
A. 0

Q. Say whether C19U G58U shows self-cleavage of 0.7 or more.
A. 0

Q. Assess whether reported self-cleavage for A57C A69U sits at 0.7 or higher.
A. 0

Q. Please check the record A67U C103A and state if its self-cleavage is at or above 0.7.
A. 0

Q. Determine whether measured self-cleavage meets or exceeds 0.7 for A67U C84U
A. 0

Q. Reported self-cleavage at or above 0.7? U23A A121G
A. 1

Q. Given the entry C63A A142U , answer whether its self-cleavage meets or surpasses 0.7.
A. 0

Q. # bool: self-cleavage of U15A U87G >= 0.7
A. 0

Q. hey, is self-cleavage for this one >= 0.7? C37U U100C
A. 1

Q. In plain terms: is recorded self-cleavage at least 0.7 for G36C A77G ?
A. 1

Q. Quick check: does U52C A77G have self-cleavage greater than or equal to 0.7?
A. 1

Q. For this variant, is measured self-cleavage 0.7 or higher? C63G U130C
A. 0

Q. Record U45C A78U ; criterion: self-cleavage no lower than 0.7. Met?
A. 1
